# Tested on: SW-620
# ASSAY SUMMARY: NCI tumour cell line growth inhibition, 48 h
Activity calls are given as the source filed them. Cut-off read from the data, not from the text of the source: active = GI50 up to about 1.1 µM and inactive = higher.
GI50 listing for selected compounds.

Solved entries (count: 4):
>  <COMPOUND>
O=Cn1c2ccccc2c2ccccc21

>  <RESULT>
> 100 µM (inactive)

$$$$
>  <COMPOUND>
COC(=O)/C=C(\CC(=O)OC)n1nnnc1[C@@H]1C[C@H](COC(c2ccccc2)(c2ccccc2)c2ccccc2)[C@H]2OC(C)(C)O[C@H]21

>  <RESULT>
> 100 µM (inactive)

$$$$
>  <COMPOUND>
CC1=C(/C=C/C(C)=C/C=C/C(C)=C/CO)C(C)(C)CCC1

>  <RESULT>
19.4 µM (inactive)

$$$$
>  <COMPOUND>
[N-]=[N+]=NI1OC(=O)c2ccccc21

>  <RESULT>
65.3 µM (inactive)

$$$$

Entry under test: CC1(C)OCC2OC3([C@H]4OC(C)(C)O[C@@H]4CO)OC(C)(C)OC3C2O1 (stereo not given in full) . Its GI50 was > 100 µM (inactive)

---

# Tested on: SR
# ASSAY SUMMARY: NCI tumour cell line growth inhibition, 48 h
Calls of active or inactive are those of the source. Rule as the data show it: active = GI50 up to about 1.1 µM and inactive = higher.
Reply using exactly one outcome from 1 (active), 0 (inactive)

>  <MOLECULE>
COc1ccc(C2C3CCc4ccccc4C3=NN2S(=O)(=O)c2ccc(/C=C/C(=O)O)cc2)cc1 (stereo not drawn)

>  <ASSIGNED LABEL>
1

$$$$
>  <MOLECULE>
CC1Cc2c(Br)nc(N)nc2NC1=O (stereo not drawn)

>  <ASSIGNED LABEL>
0

$$$$
>  <MOLECULE>
C=C(C(=O)O[C@H]1C(=O)C2=C(C)CCC3C(=C)C(=O)O[C@@H]3C2[C@]1(C)O)C1CC[C@]2(C)CCCC(=C)[C@H]2C1 (stereo partly drawn)

>  <ASSIGNED LABEL>
0

$$$$
>  <MOLECULE>
CC(=O)O[C@H]1CC[C@@]2(C)C(=CC[C@@H]3[C@@H]2CC[C@]2(C)c4c(C)nn(-c5ccccc5)c4C[C@@H]32)C1

>  <ASSIGNED LABEL>
0

$$$$

Could you check what this test reported for `O=[N+]([O-])c1ccc(Oc2c(Cl)cc(S(=O)(=O)N/C(=N\O)Nc3ccc(Cl)cc3)cc2Cl)cc1` ?
0

Could you check what this test reported for `Cc1c(C)c2c(c(N)c1C#N)C(=O)N(CCc1ccccc1)C2=O` ?
0

What outcome does the record of this test show for `O=c1c(C(c2cccnc2)c2c(O)oc3cc(O)ccc3c2=O)c(O)oc2cc(O)ccc12` ?
0

Test call, this molecule: `Cc1ccc(S(=O)(=O)N/N=C2/CC[C@H](C(C)(C)C)C[C@@H]2C)cc1`
0

---

# Test system: MOLT-4
# ASSAY SUMMARY: NCI tumour cell line growth inhibition, 48 h
The source made the active and inactive calls. No stated cut-off is given here; in the data, active = GI50 up to about 1.1 µM and inactive = higher.
// one of active, inactive, no free text

A selection of reference data follows.
>  <COMPOUND>
Cc1cnc(-c2ccccc2)o1

>  <ASSIGNED LABEL>
inactive

$$$$
>  <COMPOUND>
COc1ccccc1C1C(C(=O)Nc2ccccc2)=C(C)NC(C)=C1C(=O)Nc1ccccc1

>  <ASSIGNED LABEL>
inactive

$$$$
>  <COMPOUND>
COc1ccc(C2C(Cl)C(=O)N2n2cnc3ccccc3c2=O)cc1 (stereo unspecified)

>  <ASSIGNED LABEL>
inactive

$$$$
>  <COMPOUND>
CC(C)(C)C(=O)CC1(O)C=C(O)C(O)(CC(=O)C(C)(C)C)O1 (stereo unspecified)

>  <ASSIGNED LABEL>
inactive

$$$$
>  <COMPOUND>
COc1ccc2c(c1)CN1CCc3c(cc(OC)c(OC)c3OC)C1C2 (stereo unspecified)

>  <ASSIGNED LABEL>
inactive

$$$$

Recorded test call requested for `Nc1ncnc2c1ncn2CCCCC(=O)O`
inactive

Hi, sorry to bother you, what did the test record for Cc1nn(C(=O)c2ccc(Cl)cc2)c2c1C(c1ccc(O)cc1)SC(=N)N2 (stereo unspecified) ?
inactive

// outcome(item) with item = `Nc1cc2ncnc(Nc3cccc(Br)c3)c2cn1`
inactive

Field: outcome | Entry: `CSc1cc(Cl)c(C)cc1S(=O)(=O)NC(=O)NNc1cccc(C(F)(F)F)n1`
inactive

---

# System: CCRF-CEM
# ASSAY SUMMARY: NCI tumour cell line growth inhibition, 48 h
Activity calls are given as the source filed them. No stated cut-off is given here; in the data, active = GI50 up to about 1.1 µM and inactive = higher.
GI50 values, listed per item

>  <COMPOUND>
CC1=C(O)C(=O)C=C2C1=CC=C1[C@@]2(C)CC[C@@]2(C)[C@@H]3C[C@](C)(C(=O)O)CC[C@]3(C)CC[C@]12C

>  <RESULT>
< 0.01 µM (active)

$$$$
>  <COMPOUND>
O=[N+]([O-])c1cccc2c1[nH]c1c(-c3ccccc3)nccc12

>  <RESULT>
1.68 µM (inactive)

$$$$
>  <COMPOUND>
Cc1cc(=O)n2nc(CSc3nnc(N)s3)sc2n1

>  <RESULT>
> 100 µM (inactive)

$$$$

Reported GI50 ( COc1ccc(C2OC(N)=C(C#N)C3=C2CCCC3C)cc1OC (stereo not given) ) = > 100 µM (inactive)

Lookup result for `Cc1cc2c(cc1-c1cc3c(cc1C)C(C(C)C)=C(O)C(=O)/C3=C\Nc1ccccn1)/C(=C/Nc1ccccn1)C(=O)C(O)=C2C(C)C` ; measured GI50: 12.2 µM (inactive)

---

# Tested on: M14
# ASSAY SUMMARY: NCI tumour cell line growth inhibition, 48 h
The source made the active and inactive calls. Cut-off read from the data, not from the text of the source: active = GI50 up to about 1.1 µM and inactive = higher.
Output constraint: value belongs to active, inactive

Just curious, what result did CCCCC1Cc2cc(OC)ccc2-c2n1c1cc(OC)ccc1[n+]2C.CCCCC1Cc2cc(OC)ccc2-c2n1c1ccc(OC)cc1[n+]2C (stereo unspecified) get here?
inactive

Returns: the outcome recorded for `Cc1cnc(-c2ccccc2)o1` in this assay.
inactive

---

# Tested on: NCI-H522
# ASSAY SUMMARY: NCI tumour cell line growth inhibition, 48 h
Active and inactive are the calls of the source. Rule as the data show it: active = GI50 up to about 1.1 µM and inactive = higher.
Respond using exactly one of the listed classes: 1 (active), 0 (inactive)

>  <MOLECULE>
COc1ccc(C2C(Cl)C(=O)N2NC(=O)c2ccc(NC(C)=O)cc2)cc1 (stereo unspecified)

>  <ASSIGNED LABEL>
0

$$$$
>  <MOLECULE>
CC[C@@]1(CCC(=O)NCCc2c[nH]c3ccccc23)CCC(=O)N2CCc3c([nH]c4ccccc34)[C@H]21

>  <ASSIGNED LABEL>
0

$$$$
>  <MOLECULE>
O=Cn1c2ccccc2c2ccccc21

>  <ASSIGNED LABEL>
0

$$$$
>  <MOLECULE>
O=c1ssc2c1Nc1c(ssc1=O)S2

>  <ASSIGNED LABEL>
0

$$$$
>  <MOLECULE>
O=c1onc2c3ccccc3ncn12

>  <ASSIGNED LABEL>
0

$$$$

Please share the test call associated with `S=C1CSc2c(ccc3ccccc23)N1` .
0

Assay result, entry `CC(=O)Oc1ccc2c(c1)c1c(=O)oc(N(C)C)nc1n2Cc1ccccc1` — outcome?
0

What outcome does the record of this test show for `CN(C)c1ccc(/C=C2\N=C(c3ccc([N+](=O)[O-])cc3)OC2=O)cc1` ?
0

Tell me the assay call for CCCCCCCCC#CCCCCCCC(F)C(=O)O (stereo unspecified) please.
0

Per the records of this test, what outcome belongs to CC1OC(OC2CC(O)(C(=O)CO)Cc3c(O)c4c(c(O)c32)C(=O)c2ccccc2C4=O)CC(N)C1O (stereo unspecified) ?
1

Which outcome did this test record for the molecule `Cc1ccc(S(=O)(=O)NC(=O)NCC(=O)O)cc1` ?
0

---

Reported GI50 values follow for various compounds
# Test system: DMS-273
# ASSAY SUMMARY: NCI tumour cell line growth inhibition, 48 h
The source made the active and inactive calls. No stated cut-off is given here; in the data, active = GI50 up to about 1.1 µM and inactive = higher.

>  <COMPOUND>
COc1cc2c3c(c1OC)-c1cc4c(cc1CC3(C#N)N(C(=O)c1ccccc1)CC2)OCO4 (stereo unspecified)

>  <READOUT LABEL>
GI50

>  <RESULT>
21.6 µM (inactive)

$$$$
>  <COMPOUND>
O=C1c2ccccc2-c2ccccc2C(=O)C1(Br)Br

>  <READOUT LABEL>
GI50

>  <RESULT>
15.6 µM (inactive)

$$$$
>  <COMPOUND>
CCCCCCCCCCCCCCCC(=O)OCC(C[As](=O)(O)O)OC(=O)CCCCCCCCCCCCCCC (stereo unspecified)

>  <READOUT LABEL>
GI50

>  <RESULT>
> 100 µM (inactive)

$$$$
>  <COMPOUND>
[O-][S+]1C(=c2ccc(=C3Sc4ccccc4S3)cc2)Sc2ccccc21 (stereo unspecified)

>  <READOUT LABEL>
GI50

>  <RESULT>
18.9 µM (inactive)

$$$$
>  <COMPOUND>
OCC#CCNCl

>  <READOUT LABEL>
GI50

>  <RESULT>
> 100 µM (inactive)

$$$$

According to the records, this compound `Cc1cc(/N=C2\C=C(Nc3cc(C)on3)C(=O)c3ccccc32)no1` displays GI50 of 80.4 µM (inactive)

The compound COc1ccc(C2S/C(=C\c3ccccc3)C(=O)N2NC(=O)Cc2ccccc2)cc1 (stereo unspecified) showed GI50 equal to > 100 µM (inactive)

Record `CC(=O)OC(C)(C)/C=C/C(=O)[C@](C)(O)[C@H]1[C@H](O)C[C@@]2(C)[C@@H]3CC=C4[C@@H](C[C@H](O)[C@H](O)C4(C)C)[C@]3(C)C(=O)C[C@]12C` , field GI50: 0.421 µM (active)
